# Test system: Cryptococcus neoformans
# Experimental protocol: Antifungal activity against Cryptococcus neoformans 2867E strain
# Assay type: functional
Property measured: MIC

# Chemical string, Result
measured = [
    ("C=C(CC[C@]12O[C@H](C(=O)O)[C@@](O)(C(=O)O)[C@](C(=O)O)(O1)[C@H](OC(=O)CCC)[C@H]2OC(=O)CCC)[C@@H](OC(C)=O)[C@H](C)Cc1ccccc1", "> 125 µg/mL"),
    ("C=C(CC[C@]12O[C@H](C(=O)O)[C@@](O)(C(=O)O)[C@](C(=O)O)(O1)[C@H](O)[C@H]2O)[C@@H](OC(C)=O)[C@H](C)Cc1ccccc1", "> 125 µg/mL"),
    ("C=C(CC[C@]12O[C@H](C(=O)O)[C@@](O)(C(=O)O)[C@](C(=O)O)(O1)[C@H](OC(=O)CCCCCCCCC)[C@H]2O)[C@@H](OC(C)=O)[C@H](C)Cc1ccccc1", "2 µg/mL"),
    ("C=C(CC[C@]12O[C@H](C(=O)O)[C@@](O)(C(=O)O)[C@](C(=O)O)(O1)[C@H](OC(=O)CCCC)[C@H]2O)[C@@H](OC(C)=O)[C@H](C)Cc1ccccc1", "> 125 µg/mL"),
    ("C=C(CC[C@]12O[C@H](C(=O)O)[C@@](O)(C(=O)O)[C@](C(=O)O)(O1)[C@H](OC(=O)CC1CCCCC1)[C@H]2O)[C@@H](OC(C)=O)[C@H](C)Cc1ccccc1", "2 µg/mL"),
]

Ask: Check the records and state MIC for "C=C(CC[C@]12O[C@H](C(=O)O)[C@@](O)(C(=O)O)[C@](C(=O)O)(O1)[C@H](OC(=O)OC)[C@H]2O)[C@@H](OC(C)=O)[C@H](C)Cc1ccccc1"
Result: > 125 µg/mL

====

# Test system: Cryptococcus neoformans
# Experimental protocol: Antifungal activity against Cryptococcus neoformans 2867E strain
# Format: functional
So basically: is MIC under 2 µg/mL? Then MET. Not under? Then NOT MET.

Example results:
# Molecule, Group label
data = [
    ("C=C(CC[C@]12O[C@H](C(=O)O)[C@@](O)(C(=O)O)[C@](C(=O)O)(O1)[C@H](O)[C@H]2OC(=O)CCCCCCC)[C@@H](OC(C)=O)[C@H](C)Cc1ccccc1", "NOT MET"),
    ("C=C(CC[C@]12O[C@H](C(=O)O)[C@@](O)(C(=O)O)[C@](C(=O)O)(O1)[C@H](OC(=O)/C=C/[C@@H](C)C[C@@H](C)CC)[C@H]2OC(=O)CCCCCCC)[C@@H](OC(C)=O)[C@H](C)Cc1ccccc1", "NOT MET"),
]

Ask: hey, is MIC for "C=C(CC[C@]12O[C@H](C(=O)O)[C@@](O)(C(=O)O)[C@](C(=O)O)(O1)[C@H](OC(=O)CCCCCCC)[C@H]2OC(=O)CCCCCCC)[C@@H](OC(C)=O)[C@H](C)Cc1ccccc1" lower than 2 µg/mL or not?
Result: NOT MET

Ask: Would you kindly verify if MIC of C=C(CC[C@]12O[C@H](C(=O)O)[C@@](O)(C(=O)O)[C@](C(=O)O)(O1)[C@H](OC(=O)/C=C/[C@@H](C)C[C@@H](C)CC)[C@H]2O)[C@@H](OC(C)=O)[C@H](C)Cc1ccccc1 [ZARAGOZIC ACIDS A] is strictly less than 2 µg/mL?
Result: MET

Ask: Hello, is MIC of the following molecule strictly smaller than 2 µg/mL? "C=C(CC[C@]12O[C@H](C(=O)O)[C@@](O)(C(=O)O)[C@](C(=O)O)(O1)[C@H](OC(=O)OCCCCCCCCC)[C@H]2O)[C@@H](OC(C)=O)[C@H](C)Cc1ccccc1"
Result: MET

Ask: MIC strictly < 2 µg/mL for this molecule? "C=C(CC[C@]12O[C@H](C(=O)O)[C@@](O)(C(=O)O)[C@](C(=O)O)(O1)[C@H](OC(=O)C1CCCCC1)[C@H]2O)[C@@H](OC(C)=O)[C@H](C)Cc1ccccc1"
Result: NOT MET

Ask: Identify whether the molecule "C=C(CC[C@]12O[C@H](C(=O)O)[C@@](O)(C(=O)O)[C@](C(=O)O)(O1)[C@H](O)[C@H]2OC(=O)OC)[C@@H](OC(C)=O)[C@H](C)Cc1ccccc1" records MIC below 2 µg/mL.
Result: NOT MET

====

# Study target: Squalene synthase (Rattus norvegicus)
# Sequence (Q02769 whole entry): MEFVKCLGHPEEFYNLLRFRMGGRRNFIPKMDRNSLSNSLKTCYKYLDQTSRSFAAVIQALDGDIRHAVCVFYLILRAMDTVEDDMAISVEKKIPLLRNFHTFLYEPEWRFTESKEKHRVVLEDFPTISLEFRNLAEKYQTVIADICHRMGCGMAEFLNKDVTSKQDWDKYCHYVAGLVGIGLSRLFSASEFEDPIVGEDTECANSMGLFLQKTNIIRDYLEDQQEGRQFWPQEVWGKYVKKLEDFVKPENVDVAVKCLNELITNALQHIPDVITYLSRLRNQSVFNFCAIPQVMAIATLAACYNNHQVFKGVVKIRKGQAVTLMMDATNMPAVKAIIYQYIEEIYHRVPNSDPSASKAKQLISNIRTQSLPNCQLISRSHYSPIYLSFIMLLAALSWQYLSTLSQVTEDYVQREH
Property measured: IC50 (nM)
Express your answer in nM, writing the number without its unit.

Example cases with answers are listed next.
# Chemical string, Measurement units, IC50
measured = [
    ("C=C(CC[C@]12O[C@H](C(=O)O)[C@@](O)(C(=O)O)[C@](C(=O)O)(O1)[C@H](OC(=O)/C=C/[C@@H](C)C[C@@H](C)CC)[C@H]2OC(=O)OC)[C@@H](OC(C)=O)[C@H](C)Cc1ccccc1", "nM", 15),
    ("C=C(CC[C@]12O[C@H](C(=O)O)[C@@](O)(C(=O)O)[C@](C(=O)O)(O1)[C@H](OC(=O)CCCCCCc1ccccc1)[C@H]2O)[C@@H](OC(C)=O)[C@H](C)Cc1ccccc1", "nM", 9),
    ("C=C(CC[C@]12O[C@H](C(=O)O)[C@@](O)(C(=O)O)[C@](C(=O)O)(O1)[C@H](OC(=O)OC)[C@H]2O)[C@@H](OC(C)=O)[C@H](C)Cc1ccccc1", "nM", 3),
    ("C=C(CC[C@]12O[C@H](C(=O)O)[C@@](O)(C(=O)O)[C@](C(=O)O)(O1)[C@H](OC(=O)c1ccccc1)[C@H]2O)[C@@H](OC(C)=O)[C@H](C)Cc1ccccc1", "nM", 8),
]

Ask: Entry "C=C(CC[C@]12O[C@H](C(=O)O)[C@@](O)(C(=O)O)[C@](C(=O)O)(O1)[C@H](OC(=O)CCCCCCCCC)[C@H]2O)[C@@H](OC(C)=O)[C@H](C)Cc1ccccc1" needs its IC50 filled in; supply it.
Result: 8

====

# Test system: Cryptococcus neoformans
# Experimental protocol: Antifungal activity against Cryptococcus neoformans 2867E strain
# Type: functional
Property measured: MIC

Answered examples (4):
# Chemical string, Property measured, Result
data = [
    ("C=C(CC[C@]12O[C@H](C(=O)O)[C@@](O)(C(=O)O)[C@](C(=O)O)(O1)[C@H](O)[C@H]2OC(=O)CCCCCCCCC)[C@@H](OC(C)=O)[C@H](C)Cc1ccccc1", "MIC", "> 125 µg/mL"),
    ("C=C(CC[C@]12O[C@H](C(=O)O)[C@@](O)(C(=O)O)[C@](C(=O)O)(O1)[C@H](OC(=O)/C=C/[C@@H](C)C[C@@H](C)CC)[C@H]2OC(=O)OC)[C@@H](OC(C)=O)[C@H](C)Cc1ccccc1", "MIC", "> 125 µg/mL"),
    ("C=C(CC[C@]12O[C@H](C(=O)O)[C@@](O)(C(=O)O)[C@](C(=O)O)(O1)[C@H](OC(=O)/C=C/[C@@H](C)C[C@@H](C)CC)[C@H]2OC(C)=O)[C@@H](OC(C)=O)[C@H](C)Cc1ccccc1", "MIC", "1 µg/mL"),
    ("C=C(CC[C@]12O[C@H](C(=O)O)[C@@](O)(C(=O)O)[C@](C(=O)O)(O1)[C@H](OC(C)=O)[C@H]2O)[C@@H](OC(C)=O)[C@H](C)Cc1ccccc1", "MIC", "> 125 µg/mL"),
]

Ask: Look up MIC of "C=C(CC[C@]12O[C@H](C(=O)O)[C@@](O)(C(=O)O)[C@](C(=O)O)(O1)[C@H](OC(=O)OCCCC)[C@H]2O)[C@@H](OC(C)=O)[C@H](C)Cc1ccccc1" and report it.
Result: > 125 µg/mL

====

# Tested on: Cryptococcus neoformans
# Experimental protocol: Antifungal activity against Cryptococcus neoformans 2867E strain
# Format: functional
Property measured: MIC (mg/L)
Give your result in mg/L as a bare value.

Solved entries (count: 2):
# Chemical string, Measurement units, MIC
data = [
    ("C=C(CC[C@]12O[C@H](C(=O)O)[C@@](O)(C(=O)O)[C@](C(=O)O)(O1)[C@H](OC(=O)CCCCCCc1ccccc1)[C@H]2O)[C@@H](OC(C)=O)[C@H](C)Cc1ccccc1", "mg/L", 2),
    ("C=C(CC[C@]12O[C@H](C(=O)O)[C@@](O)(C(=O)O)[C@](C(=O)O)(O1)[C@H](OC(=O)CCCCCCC)[C@H]2O)[C@@H](OC(C)=O)[C@H](C)Cc1ccccc1", "mg/L", 1),
]

Now take the following compound into account.
Ask: State its MIC: "C=C(CC[C@]12O[C@H](C(=O)O)[C@@](O)(C(=O)O)[C@](C(=O)O)(O1)[C@H](OC(=O)/C=C/c1ccccc1)[C@H]2O)[C@@H](OC(C)=O)[C@H](C)Cc1ccccc1"
Result: 31

Where do the numbers come from? From ChEMBL document CHEMBL1151052.
